- target-entity: T1, CRBN, Q96SW2;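 also: pooled lentiviral library of zinc finger degron-EGFP fusions in mCherry-positive Jurkat cells, FACS-sorted after compound exposure, with degron abundance counted by next-generation sequencing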
- T1 chain: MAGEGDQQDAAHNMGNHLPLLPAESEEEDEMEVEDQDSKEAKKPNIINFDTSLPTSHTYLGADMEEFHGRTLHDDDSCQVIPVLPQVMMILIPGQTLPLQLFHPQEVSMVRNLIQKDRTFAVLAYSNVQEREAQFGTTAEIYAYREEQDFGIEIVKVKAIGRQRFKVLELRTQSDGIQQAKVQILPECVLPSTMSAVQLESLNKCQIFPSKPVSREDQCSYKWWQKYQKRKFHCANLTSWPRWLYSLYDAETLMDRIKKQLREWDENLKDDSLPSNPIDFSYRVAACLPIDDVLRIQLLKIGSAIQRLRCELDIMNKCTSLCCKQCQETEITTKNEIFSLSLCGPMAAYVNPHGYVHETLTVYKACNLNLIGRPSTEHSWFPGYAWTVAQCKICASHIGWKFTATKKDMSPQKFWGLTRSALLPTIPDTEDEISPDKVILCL
- protocol-summary: log2 fold change of degron read counts, EGFP-low vs EGFP+ sorted cells (limma voom), compound-induced degradation; higher = more compound-induced degradation of the degron-EGFP fusion; degrons are variants of IKZF1/3 zinc finger 2; compound dose not given here
- assay-conditions: Jurkat; 18 h; compound: compound 22 (5-morpholino-thalidomide)
In all, about 8,300 sequences were measured (“log2 fold change of degron read counts, EGFP-low vs EGFP+ sorted cells (limma voom), compound-induced degradation”: median about -1.1, highest 2% from about 3.2 on). This excerpt belongs to a sample that is enriched for the highest values.
reported-property: log2 fold change of degron read counts
Answers are plain numbers.

Answered examples (6):
biosequence	reported-property	experimental-value
FWCPQCGAQFTQKGNLLRHIKL [46F_47W_49P_50Q_52G_53A_54Q_55F_67L_, Q9UKT9]	log2 fold change of degron read counts	3.54
FACPQCGAQFTQKGNLLRHIKL [46F_47A_49P_50Q_52G_53A_54Q_55F_67L_, Q9UKT9]	log2 fold change of degron read counts	-1.5
FMCPVCGAQFTQKGNLLRHIKL [46F_47M_49P_50V_52G_53A_54Q_55F_67L_, Q9UKT9]	log2 fold change of degron read counts	1.27
LYCPICGFACTQKGNLLRHIKL [46L_47Y_49P_50I_52G_53F_54A_55C_67L_, Q9UKT9]	log2 fold change of degron read counts	3.33
FCCPVCGAQFTQKGNLLRHIKL [46F_47C_49P_50V_52G_53A_54Q_55F_67L_, Q9UKT9]	log2 fold change of degron read counts	2.25
FSCPVCGAQFTQKGNLLRHIKL [46F_47S_49P_50V_52G_53A_54Q_55F_67L_, Q9UKT9]	log2 fold change of degron read counts	2.08

Quick request: log2 fold change of degron read counts for each listed item, please.
1. FNCDICGAKFTQKGNLLRHIKL [46F_47N_49D_50I_52G_53A_54K_55F_67L_, Q9UKT9]
2. FQCDICGAKFTQKGNLLRHIKL [46F_47Q_49D_50I_52G_53A_54K_55F_67L_, Q9UKT9]
3. FRCPVCGAQFTQKGNLLRHIKL [46F_47R_49P_50V_52G_53A_54Q_55F_67L_, Q9UKT9]
4. FVCPVCGAQFTQKGNLLRHIKL [46F_47V_49P_50V_52G_53A_54Q_55F_67L_, Q9UKT9]
5. FFCEICGHNFTQKGNLLRHIKL [46F_47F_49E_50I_52G_53H_54N_55F_67L_, Q9UKT9]
6. FLCDICGAKFTQKGNLLRHIKL [46F_47L_49D_50I_52G_53A_54K_55F_67L_, Q9UKT9]

Ans.
-1.18
2.25
0.391
2.62
-3.18
-1.86
